Test system: E. faecium 7131121 VRE
Assay type: cell-based
conditionNotes: 7131121 VRE
Here, each record is paired with measured MIC E. faecium 7131121 VRE data.

Sample answers from the record:
# compound, MIC E. faecium 7131121 VRE
data = [
    ("C=C1NC(=O)C2NC(=O)[C@H](CC(C)C)NC(=O)C(NC(=O)[C@@H]3CSC(C)C(NC(=O)[C@H](Cc4ccccc4)NC(=O)C4NC(=O)[C@@H](N)CSC4C)C(=O)N[C@@H](CC(C)C)C(=O)N[C@@H](Cc4c[nH]cn4)C(=O)NCC(=O)NCC(=O)NCC(=O)NCC(=O)N[C@@H](C(C)C)C(=O)N3)C(C)SC[C@H](NC(=O)[C@H](CCC(=O)O)NC1=O)C(=O)N[C@@H]([C@@H](C)CC)C(=O)NC=CSC2C (stereo partly drawn) [P6H]", ">64 µg/mL"),
    ("C=C1NC(=O)C2NC(=O)[C@H](CC(C)C)NC(=O)C(NC(=O)[C@@H]3CSC(C)C(NC(=O)[C@H](Cc4ccccc4)NC(=O)C4NC(=O)[C@@H](N)CSC4C)C(=O)N[C@@H](CC(C)C)C(=O)N4CCC[C@H]4C(=O)NCC(=O)NCC(=O)NCC(=O)NCC(=O)N[C@@H](CCSC)C(=O)N3)C(C)SC[C@H](NC(=O)[C@H](CCC(=O)O)NC1=O)C(=O)N[C@@H]([C@@H](C)CC)C(=O)NC=CSC2C (stereo partly drawn) [V11M]", "64 µg/mL"),
]

--- query ---
Provide value of MIC E. faecium 7131121 VRE for this record tested with E. faecium 7131121 VRE: C=C1NC(=O)C2NC(=O)[C@H](CCSC)NC(=O)C(NC(=O)[C@@H]3CSC(C)C(NC(=O)[C@H](Cc4ccccc4)NC(=O)C4NC(=O)[C@@H](N)CSC4C)C(=O)N[C@@H](CC(C)C)C(=O)N4CCC[C@H]4C(=O)NCC(=O)NCC(=O)NCC(=O)NCC(=O)N[C@@H](C(C)C)C(=O)N3)C(C)SC[C@H](NC(=O)[C@H](CCC(=O)O)NC1=O)C(=O)N[C@@H]([C@@H](C)CC)C(=O)NC=CSC2C (stereo partly drawn) [L14M]
64 µg/mL

====

Tested on: E. faecalis ATCC29212
Type: cell-based
conditionNotes: ATCC29212
resultType: MIC E. faecalis ATCC29212 (µg/mL)
I only need the number, in µg/mL, no unit after it.

# compound, targetOrTestSystem, unitsOfMeasure, MIC E. faecalis ATCC29212
rows = [
    ("C=C1NC(=O)C2NC(=O)[C@H](CC(C)C)NC(=O)C(NC(=O)[C@@H]3CSC(C)C(NC(=O)[C@H](Cc4ccccc4)NC(=O)C4NC(=O)[C@@H](N)CSC4C)C(=O)N[C@@H](CC(C)C)C(=O)N4CCC[C@H]4C(=O)NCC(=O)NCC(=O)NCC(=O)NCC(=O)N[C@@H]([C@@H](C)CC)C(=O)N3)C(C)SC[C@H](NC(=O)[C@H](CCC(=O)O)NC1=O)C(=O)N[C@@H]([C@@H](C)CC)C(=O)NC=CSC2C (stereo partly drawn) [V11I]", "E. faecalis ATCC29212", "µg/mL", 16),
]

Provide value of MIC E. faecalis ATCC29212 for this record tested with E. faecalis ATCC29212: CC[C@H](C)[C@@H]1NC(=O)[C@@H]2CSC(C)C(NC(=O)[C@@H]3CSC(C)C(NC(=O)[C@H](Cc4ccccc4)NC(=O)C4NC(=O)[C@@H](N)CSC4C)C(=O)N[C@@H](CC(C)C)C(=O)N4CCC[C@H]4C(=O)NCC(=O)NCC(=O)NCC(=O)NCC(=O)N[C@@H](C(C)C)C(=O)N3)C(=O)N[C@@H](CC(C)C)C(=O)NC(C(=O)N[C@@H](C)C(=O)N[C@@H](CCC(=O)O)C(=O)N2)C(C)SC=CNC1=O (stereo partly drawn) [S16A]
64
